I'd appreciate it if you could supply RP-LC retention time values for the items below.
- assay-procedure: gradient 5% acetonitrile 3 min, to 50% in 2 min, to 85% in 15 min, held 3 min, 100 µL/min
- test-conditions: column: Zorbax Extend-C18 2.1 x 50 mm; eluents: water / acetonitrile, 0.1% formic acid
Give the figure together with its unit, number first.

Cc1[nH]c(C)c(S(=O)(=O)N2CCC(C(=O)N3CCc4ccccc43)CC2)c1C(=O)N1CCCC1 ... 716 s
O=C(Nc1ccccc1-c1cn2c(CN3CCNCC3)csc2n1)c1cnc2ccccc2n1 ... 783 s

Now, please, on to the next compound.
Req: Using the record for CC(C)CCNC(=O)C1CCCCC(=O)N1 (stereo not drawn) , state its measured RP-LC retention time.
Resp: 670 s
